# testedTarget: NMDA receptor subunits 1A/2D (NR1A+NR2D) (Rattus norvegicus, UniProt P35439+Q62645)
# Sequence (Q62645 28-1323, other chains not shown): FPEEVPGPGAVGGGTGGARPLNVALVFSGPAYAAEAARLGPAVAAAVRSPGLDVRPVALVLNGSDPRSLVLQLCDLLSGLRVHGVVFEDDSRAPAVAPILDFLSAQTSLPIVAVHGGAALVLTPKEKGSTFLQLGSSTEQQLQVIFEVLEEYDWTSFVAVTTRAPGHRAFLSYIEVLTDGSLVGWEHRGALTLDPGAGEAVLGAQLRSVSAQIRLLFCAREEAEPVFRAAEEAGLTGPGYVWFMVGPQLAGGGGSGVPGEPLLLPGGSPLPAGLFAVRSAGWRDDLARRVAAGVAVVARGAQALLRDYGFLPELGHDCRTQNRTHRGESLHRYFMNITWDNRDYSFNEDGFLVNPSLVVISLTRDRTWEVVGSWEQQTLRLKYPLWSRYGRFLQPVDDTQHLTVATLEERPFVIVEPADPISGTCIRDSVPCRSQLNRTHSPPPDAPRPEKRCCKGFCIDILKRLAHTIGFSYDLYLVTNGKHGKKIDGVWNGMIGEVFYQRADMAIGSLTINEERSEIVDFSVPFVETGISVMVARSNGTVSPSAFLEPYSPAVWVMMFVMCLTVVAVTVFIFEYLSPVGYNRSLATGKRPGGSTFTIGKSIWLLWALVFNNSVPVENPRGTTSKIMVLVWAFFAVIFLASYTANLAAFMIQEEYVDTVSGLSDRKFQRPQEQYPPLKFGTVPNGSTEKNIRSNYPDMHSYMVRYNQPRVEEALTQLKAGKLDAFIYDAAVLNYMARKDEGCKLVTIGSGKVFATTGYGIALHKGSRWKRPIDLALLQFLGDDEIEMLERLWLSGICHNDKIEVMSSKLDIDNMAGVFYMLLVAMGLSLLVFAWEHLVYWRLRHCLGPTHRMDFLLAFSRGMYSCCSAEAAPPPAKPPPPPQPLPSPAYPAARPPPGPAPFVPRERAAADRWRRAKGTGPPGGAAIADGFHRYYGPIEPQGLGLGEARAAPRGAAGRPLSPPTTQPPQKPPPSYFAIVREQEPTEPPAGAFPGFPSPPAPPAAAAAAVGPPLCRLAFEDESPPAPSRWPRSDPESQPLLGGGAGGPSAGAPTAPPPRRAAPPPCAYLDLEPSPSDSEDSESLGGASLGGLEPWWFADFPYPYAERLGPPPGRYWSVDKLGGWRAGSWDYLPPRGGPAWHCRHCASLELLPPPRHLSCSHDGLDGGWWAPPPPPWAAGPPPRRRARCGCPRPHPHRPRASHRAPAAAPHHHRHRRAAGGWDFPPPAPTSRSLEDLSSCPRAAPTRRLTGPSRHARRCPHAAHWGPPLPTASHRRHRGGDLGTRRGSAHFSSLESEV
# assayProcedure: Electrophysiological assay at cloned NMDA receptor subunits expressed in Xenopus oocytes, 1A/2D
# Type: cell-based
# runParameters: two-electrode voltage clamp, currents activated by glutamate and glycine
Please provide measured IC50 for the entries that follow.

Entry CCOc1ccccc1OCC1CCCCN1CCCOc1ccccc1 (centres unmarked) needs its IC50 filled in; supply it.
> 300 µM

Entry Cc1ccccc1OCC(O)CN1CCCCC1Cc1ccccc1 (centres unmarked) needs its IC50 filled in; supply it.
> 300 µM

---

Please provide measured pIC50 for the entries that follow.
# testedTarget: NMDA receptor subunits 1A/2C (NR1A+NR2C) (Rattus norvegicus, UniProt P35439+Q00961)
# Sequence (Q00961 20-1237, other chains not shown): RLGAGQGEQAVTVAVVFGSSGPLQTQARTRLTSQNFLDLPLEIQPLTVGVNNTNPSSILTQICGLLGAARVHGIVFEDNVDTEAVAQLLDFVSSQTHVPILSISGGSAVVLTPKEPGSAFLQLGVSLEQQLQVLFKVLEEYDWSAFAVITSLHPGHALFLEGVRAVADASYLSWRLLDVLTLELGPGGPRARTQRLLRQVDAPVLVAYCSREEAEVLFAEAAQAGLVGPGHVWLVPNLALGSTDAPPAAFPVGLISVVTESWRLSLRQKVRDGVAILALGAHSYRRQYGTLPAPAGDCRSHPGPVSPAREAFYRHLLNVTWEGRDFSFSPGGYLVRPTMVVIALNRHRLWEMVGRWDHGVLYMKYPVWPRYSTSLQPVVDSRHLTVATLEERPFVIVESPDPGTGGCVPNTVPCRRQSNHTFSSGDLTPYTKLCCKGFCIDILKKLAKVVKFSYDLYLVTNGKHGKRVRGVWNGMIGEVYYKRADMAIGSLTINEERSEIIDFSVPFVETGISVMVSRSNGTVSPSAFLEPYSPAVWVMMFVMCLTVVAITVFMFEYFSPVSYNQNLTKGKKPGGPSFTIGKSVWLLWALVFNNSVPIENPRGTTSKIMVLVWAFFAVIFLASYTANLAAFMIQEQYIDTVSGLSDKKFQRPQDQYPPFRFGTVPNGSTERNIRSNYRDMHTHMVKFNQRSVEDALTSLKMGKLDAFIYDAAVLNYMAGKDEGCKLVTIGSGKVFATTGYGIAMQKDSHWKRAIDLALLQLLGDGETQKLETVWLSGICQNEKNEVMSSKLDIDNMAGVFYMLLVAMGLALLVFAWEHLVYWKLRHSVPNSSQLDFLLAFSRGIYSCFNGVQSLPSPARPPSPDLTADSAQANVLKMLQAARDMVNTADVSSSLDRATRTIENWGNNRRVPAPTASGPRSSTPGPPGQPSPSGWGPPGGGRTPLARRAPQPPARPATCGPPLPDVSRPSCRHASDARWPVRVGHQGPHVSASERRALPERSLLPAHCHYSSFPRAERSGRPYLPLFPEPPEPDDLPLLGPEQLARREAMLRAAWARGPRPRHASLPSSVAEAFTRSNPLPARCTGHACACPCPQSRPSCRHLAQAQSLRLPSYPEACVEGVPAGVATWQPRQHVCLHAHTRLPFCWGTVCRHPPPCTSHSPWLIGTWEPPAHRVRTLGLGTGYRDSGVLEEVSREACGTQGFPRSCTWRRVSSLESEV
# assayProcedure: Electrophysiological assay at cloned NMDA receptor subunits expressed in Xenopus oocytes, 1A/2C
# Assay type: cell-based
Here pIC50 is given on a logarithmic scale as minus log10 of the concentration in mol/L.

# assay system NMDA receptor subunits 1A/2C (NR1A+NR2C) (Rattus norvegicus, UniProt P35439+Q00961): give pIC50 of Cl.Oc1ccc(OCCN2CCCCC2Cc2ccc(Cl)cc2)cc1 (centres unmarked) [Example 25, hydrochloride]
3.80

# assay system NMDA receptor subunits 1A/2C (NR1A+NR2C) (Rattus norvegicus, UniProt P35439+Q00961): give pIC50 of Cl.Oc1ccc(OCCN2CCCCC2Cc2ccccc2)cc1 (centres unmarked) [Example 26, hydrochloride]
3.82

---

# testedTarget: NMDA receptor subunits 1A/2A (NR1A+NR2A) (Rattus norvegicus, UniProt P35439+Q00959)
# Sequence (Q00959 23-1464, other chains not shown): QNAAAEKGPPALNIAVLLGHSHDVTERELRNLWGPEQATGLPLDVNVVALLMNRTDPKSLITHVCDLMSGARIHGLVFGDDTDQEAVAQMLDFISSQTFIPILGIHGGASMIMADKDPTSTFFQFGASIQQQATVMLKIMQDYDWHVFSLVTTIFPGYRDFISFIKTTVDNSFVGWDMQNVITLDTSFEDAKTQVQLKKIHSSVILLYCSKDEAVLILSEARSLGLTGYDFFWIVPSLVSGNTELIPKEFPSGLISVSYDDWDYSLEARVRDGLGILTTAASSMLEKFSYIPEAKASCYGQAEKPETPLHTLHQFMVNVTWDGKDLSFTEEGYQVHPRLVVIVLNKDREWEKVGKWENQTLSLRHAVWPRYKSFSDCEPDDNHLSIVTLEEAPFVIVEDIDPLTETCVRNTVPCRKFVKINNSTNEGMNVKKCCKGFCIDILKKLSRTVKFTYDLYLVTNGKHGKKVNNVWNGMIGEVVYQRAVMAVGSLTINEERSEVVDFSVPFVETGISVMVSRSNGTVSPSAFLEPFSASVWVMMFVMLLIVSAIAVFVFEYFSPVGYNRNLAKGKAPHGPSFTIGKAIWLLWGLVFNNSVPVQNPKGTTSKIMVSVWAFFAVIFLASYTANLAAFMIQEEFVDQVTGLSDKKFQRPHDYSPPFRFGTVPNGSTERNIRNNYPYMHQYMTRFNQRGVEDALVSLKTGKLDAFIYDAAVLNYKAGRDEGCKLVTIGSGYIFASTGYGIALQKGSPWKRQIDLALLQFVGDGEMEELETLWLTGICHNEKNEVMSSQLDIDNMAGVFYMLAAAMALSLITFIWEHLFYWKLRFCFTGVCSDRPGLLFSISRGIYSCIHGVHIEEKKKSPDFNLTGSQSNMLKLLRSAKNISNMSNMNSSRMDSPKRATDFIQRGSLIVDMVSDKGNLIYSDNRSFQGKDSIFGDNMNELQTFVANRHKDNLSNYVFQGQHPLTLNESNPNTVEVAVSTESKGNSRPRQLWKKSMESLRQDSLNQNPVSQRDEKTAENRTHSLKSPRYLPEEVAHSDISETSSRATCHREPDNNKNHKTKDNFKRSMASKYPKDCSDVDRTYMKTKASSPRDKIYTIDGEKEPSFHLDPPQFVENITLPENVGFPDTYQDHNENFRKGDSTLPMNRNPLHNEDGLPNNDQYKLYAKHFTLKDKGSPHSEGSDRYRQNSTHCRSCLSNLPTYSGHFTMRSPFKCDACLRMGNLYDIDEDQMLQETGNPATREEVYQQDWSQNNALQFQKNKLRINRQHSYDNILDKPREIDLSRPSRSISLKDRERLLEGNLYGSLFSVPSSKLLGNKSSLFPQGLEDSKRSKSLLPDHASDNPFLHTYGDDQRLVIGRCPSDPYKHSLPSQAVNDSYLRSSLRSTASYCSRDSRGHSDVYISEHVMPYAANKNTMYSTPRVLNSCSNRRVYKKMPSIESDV
# assayProcedure: Electrophysiological assay at cloned NMDA receptor subunits expressed in Xenopus oocytes, 1A/2A
# Assay type: cell-based
# runParameters: cloned rat NMDA receptor in Xenopus oocytes, two-electrode voltage clamp, currents activated by glutamate and glycine; read-out: Subunits (IC50(μM)) 1A/2A
# Method: Electrophysiological Assays at NMDA Receptor Subunits The clones were transformed into appropriate host bacteria and plasmid preparations were made with conventional DNA purification techniques. A sample of each clone was linearized by restriction enzyme digestion and cRNA was synthesized with T3 RNA polymerase. The cRNA was diluted to 400 ng/μl and stored in 1 μl aliquots at −80° C. until injection. The Xenopus oocyte Expression System […]
Where a name gives a salt, the structure may show the parent alone.
Please provide measured IC50 for the entries that follow.
Hi! Could you send only the number? It should be in µM, unit omitted.

Entry O=c1[nH]c2ccc(OCCN3CCCCC3Cc3ccccc3)cc2[nH]1 (stereo not drawn) needs its IC50 filled in; supply it.
7.5

Entry Nc1ccc(OCCN2CCCCC2Cc2ccccc2)cc1 (stereo not drawn) [Example 22, dihydrobromide] needs its IC50 filled in; supply it.
80

Entry Cl.Fc1ccc(OCCN2CCCCC2Cc2ccc(Cl)cc2)cc1 (stereo not drawn) [Example 24, hydrochloride] needs its IC50 filled in; supply it.
55

---

Please provide measured IC50 for the entries that follow.
# testedTarget: NMDA receptor subunits 1A/2A (NR1A+NR2A) (Rattus norvegicus, UniProt P35439+Q00959)
# assayProcedure: Electrophysiological assay at cloned NMDA receptor subunits expressed in Xenopus oocytes, 1A/2A
# Format: cell-based
# runParameters: cloned rat NMDA receptor in Xenopus oocytes, two-electrode voltage clamp, currents activated by glutamate and glycine; read-out: Subunits (IC50(μM)) 1A/2A
Where a name gives a salt, the structure may show the parent alone.
The reply must contain the numeric value and, after it, the unit.

Entry c1ccc(CC2CCCCN2CCCCCOc2ccccc2)cc1 (stereo not shown) [Example 20, hydrobromide] needs its IC50 filled in; supply it.
14 µM

Entry Cc1ccccc1OCC(O)CN1CCCCC1Cc1ccccc1 (stereo not shown) needs its IC50 filled in; supply it.
23 µM

Entry c1ccc(CC2CCCCN2CCCCOc2ccccc2)cc1 (stereo not shown) needs its IC50 filled in; supply it.
3 µM

Entry Oc1ccc(OCCCCN2CCCCC2Cc2ccccc2)cc1 (stereo not shown) [Example 28, hydrochloride] needs its IC50 filled in; supply it.
15 µM

Entry Br.c1ccc(CCCN2CCCCC2Cc2ccccc2)cc1 (stereo not shown) [Example 4, hydrobromide] needs its IC50 filled in; supply it.
8 µM

Entry c1ccc(CCCCN2CCCCC2Cc2ccccc2)cc1 (stereo not shown) needs its IC50 filled in; supply it.
5 µM

Entry c1ccc(CC2CCCCN2Cc2ccccc2)cc1 (stereo not shown) [Example 2, 1,2-Dibenzylpiperidine, hydrobromide] needs its IC50 filled in; supply it.
15 µM

Entry source: patent US6534525B1
